- System: C. glabrata ATCC 90030
- Recorded Conditions: strain K, echinocandin-susceptible; YPAD broth, 24 h, 30 °C, OD600 reduced by ≥75%
Starred links: 1 amine or outer side, 2 acyl side, 3 side chain; linkers in the order of their positions; H or OH if unused. Positions of bridges follow the written chain, without caps; N, C: chain ends. Non-standard residues stand in square brackets, D forms with d. Residues, ends and D or L forms follow the SMILES beside them. *: point of attachment. X1 = O=C([C@@H](N[*:1])[C@H](O)[C@@H](O)c1ccc(OCc2cn(CCCNc3ccc([N+](=O)[O-])c4nonc34)nn2)cc1)[*:2]; Orn(4R-OH,5R-OCH2CH2NMe3+) = C[N+](C)(C)CCO[C@@H](N[*:3])[C@H](O)C[C@H](N[*:1])C(=O)[*:2]; pTerphenylCO(4''-OnC5H11) = CCCCCOc1ccc(-c2ccc(-c3ccc(C(=O)*)cc3)cc2)cc1; hTyr(3S-OH,4S-OH) = N[C@H](C(=O)O)[C@H](O)[C@@H](O)c1ccc(O)cc1; Pro(3S-OH,4S-Me) = C[C@H]1CN[C@H](C(=O)O)[C@H]1O; Hyp = O=C(O)[C@@H]1C[C@@H](O)CN1
Measured MIC by item

Compound	MIC, µg/mL
CCCCCOc1ccc(-c2ccc(-c3ccc(C(=O)N[C@H]4C[C@@H](O)[C@@H](OCC[N+](C)(C)C)NC(=O)[C@@H]5[C@@H](O)[C@@H](C)CN5C(=O)[C@H]([C@@H](C)O)NC(=O)[C@H]([C@H](O)[C@@H](O)c5ccc(O)cc5)NC(=O)[C@@H]5C[C@@H](O)CN5C(=O)[C@H]([C@@H](C)O)NC4=O)cc3)cc2)cc1 [RZF, rezafungin, reference compound] ({pTerphenylCO(4''-OnC5H11)}-[Orn(4R-OH,5R-OCH2CH2NMe3+)]T[Hyp][hTyr(3S-OH,4S-OH)]T[Pro(3S-OH,4S-Me)]; lactam 1-C)	0.031
CC[C@H](C)C[C@H](C)CCCCCCCCC(=O)N[C@H]1C[C@@H](O)[C@@H](NCCN)NC(=O)[C@@H]2[C@@H](O)CCN2C(=O)[C@H]([C@H](O)CCN)NC(=O)[C@H]([C@H](O)[C@@H](O)c2ccc(O)cc2)NC(=O)[C@@H]2C[C@@H](O)CN2C(=O)[C@H]([C@@H](C)O)NC1=O [CSF, caspofungin, reference compound]	0.125
CCCCCOc1ccc(-c2ccc(-c3ccc(C(=O)N[C@H]4C[C@@H](O)[C@@H](OCC[N+](C)(C)C)NC(=O)[C@@H]5[C@@H](O)[C@@H](C)CN5C(=O)[C@H]([C@@H](C)O)NC(=O)[C@H]([C@H](O)[C@@H](O)c5ccc(OCc6cn(CCCNc7ccc([N+](=O)[O-])c8nonc78)nn6)cc5)NC(=O)[C@@H]5C[C@@H](O)CN5C(=O)[C@H]([C@@H](C)O)NC4=O)cc3)cc2)cc1 [Probe 6] ({pTerphenylCO(4''-OnC5H11)}-[Orn(4R-OH,5R-OCH2CH2NMe3+)]T[Hyp][X1]T[Pro(3S-OH,4S-Me)]; lactam 1-C)	1
